- test.system: BTK (human) (UniProt Q06187)
- Sequence (Q06187 whole entry, looked up): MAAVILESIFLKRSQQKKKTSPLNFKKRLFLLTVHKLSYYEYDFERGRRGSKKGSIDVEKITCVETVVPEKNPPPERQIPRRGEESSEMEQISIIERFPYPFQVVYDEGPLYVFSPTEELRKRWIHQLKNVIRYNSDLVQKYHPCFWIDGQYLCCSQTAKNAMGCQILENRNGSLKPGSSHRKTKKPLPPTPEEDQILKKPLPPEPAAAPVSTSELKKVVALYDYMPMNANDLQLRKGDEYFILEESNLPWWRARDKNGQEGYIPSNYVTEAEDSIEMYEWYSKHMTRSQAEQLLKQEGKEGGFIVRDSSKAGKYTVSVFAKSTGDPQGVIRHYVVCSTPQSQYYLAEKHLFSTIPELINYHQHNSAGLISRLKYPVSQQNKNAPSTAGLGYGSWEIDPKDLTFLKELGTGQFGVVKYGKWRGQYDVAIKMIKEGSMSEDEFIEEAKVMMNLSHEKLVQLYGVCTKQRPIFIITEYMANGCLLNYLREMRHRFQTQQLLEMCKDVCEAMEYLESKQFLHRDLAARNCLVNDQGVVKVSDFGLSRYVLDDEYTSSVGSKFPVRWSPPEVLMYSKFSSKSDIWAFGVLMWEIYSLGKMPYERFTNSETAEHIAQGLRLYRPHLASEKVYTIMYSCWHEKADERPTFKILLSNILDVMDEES
- method.notes: radiometric filter-binding kinase assay
- applied.conditions: compound 0.1 µM
property.label: residual activity (%)

- COc1ccc(N(C(=O)Nc2c(C)cccc2C)c2cc(Nc3ccc(N4CCN(C)CC4)cc3)ncn2)c(OC)c1: 38
- NC(=O)Nc1ccc2c(c1)/C(=C/c1cc(-c3cccnc3)c[nH]1)C(=O)N2: 86
- c1ccc2c(-c3cnn4cc(-c5ccc(N6CCNCC6)cc5)cnc34)ccnc2c1: 111
- O=C(Nc1ccccc1-c1cn2c(CN3CCNCC3)csc2n1)c1cnc2ccccc2n1: 88
- NC(=O)c1cc(-c2ccnc(NC3CCCCC3)c2)nc(N2CCNCC2)c1: 92

----------
- test.system: FGFR1 (human)
- method.notes: radiometric filter-binding kinase assay
- applied.conditions: compound 10.0 µM
Reported values of residual activity for individual entries
property.label: residual activity

- Oc1ccc2ccccc2c1SSc1c(O)ccc2ccccc12: 29%
- N#Cc1c(C2CCNCC2)cc(-c2c(O)cccc2OCC2CC2)nc1N: 72%
- CCOC(=O)c1ccc(N2NC(=O)/C(=C/c3ccc([N+](=O)[O-])o3)C2=O)cc1: 69%
- NS(=O)(=O)OC[C@@H]1C[C@@H](n2ccc3c(N[C@H]4CCc5ccccc54)ncnc32)C[C@@H]1O: 126%

----------
- test.system: UniProtKB Q15418
- Sequence (Q15418 whole entry, looked up): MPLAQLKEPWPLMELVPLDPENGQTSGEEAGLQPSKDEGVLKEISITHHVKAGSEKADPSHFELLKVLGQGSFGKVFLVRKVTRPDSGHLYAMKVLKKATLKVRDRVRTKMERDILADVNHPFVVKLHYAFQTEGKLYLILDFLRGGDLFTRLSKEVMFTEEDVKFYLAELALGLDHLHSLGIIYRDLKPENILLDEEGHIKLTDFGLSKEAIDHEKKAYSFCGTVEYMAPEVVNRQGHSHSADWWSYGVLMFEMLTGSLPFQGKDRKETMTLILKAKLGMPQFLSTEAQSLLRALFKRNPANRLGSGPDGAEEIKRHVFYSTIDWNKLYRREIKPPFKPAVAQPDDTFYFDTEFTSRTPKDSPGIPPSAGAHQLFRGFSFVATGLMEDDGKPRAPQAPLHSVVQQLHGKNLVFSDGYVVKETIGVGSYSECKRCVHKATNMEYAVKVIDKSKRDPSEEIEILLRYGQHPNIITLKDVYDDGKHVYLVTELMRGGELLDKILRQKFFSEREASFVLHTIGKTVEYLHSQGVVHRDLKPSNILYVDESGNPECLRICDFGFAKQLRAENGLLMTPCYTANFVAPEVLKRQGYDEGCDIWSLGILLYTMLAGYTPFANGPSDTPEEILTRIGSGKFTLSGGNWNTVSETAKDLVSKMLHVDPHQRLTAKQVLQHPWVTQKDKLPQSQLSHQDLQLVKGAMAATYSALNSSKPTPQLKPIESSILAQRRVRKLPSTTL
- method.notes: radiometric filter-binding kinase assay
- applied.conditions: compound 1.0 µM
I'd appreciate it if you could label each record using residual activity and these ranges: lower segment = under 70%, middle segment = from 70% up to 90%, upper segment = 90% and over

- COc1cc2ncn(-c3cc(OCc4ccccc4S(C)(=O)=O)c(C#N)s3)c2cc1OC: lower segment
- O=C(NCCCNc1nc(Nc2cccc(CN3CCOCC3)c2)ncc1C1CC1)C1CCC1: lower segment
- NC1(c2ccc(-c3nc4ccn5c(=O)[nH]nc5c4cc3-c3ccccc3)cc2)CCC1: middle segment
- CNc1nc(-c2ccc3c(N)n[nH]c3c2)cc(N2C[C@@H](C(=O)NC3CCCCC3)CC[C@H]2C)n1: middle segment
- O=C(Nc1ccccc1-c1cn2c(CN3CCNCC3)csc2n1)c1cnc2ccccc2n1: lower segment
- O=C(Nc1nc2cc(C(F)(F)F)cc(NC3CC3)n2n1)c1cccnc1: lower segment
- Cc1cccc(-c2nn(C(=S)Nc3ccccc3)cc2-c2ccnc3ccccc23)n1: upper segment
- O=C(NOCC(O)CO)c1ccc(F)c(F)c1Nc1ccc(I)cc1Cl (stereo not given): upper segment
- Oc1ccc(/C=C/c2cc(O)cc(O)c2)cc1: middle segment
- C=C1C(=O)OC2C1CC/C(C)=C/CCC1(C)OC21 (stereo not given): upper segment

----------
- test.system: EPHA2 (human)
- method.notes: radiometric filter-binding kinase assay
- applied.conditions: compound 1.0 µM
property.label: residual activity

* O=C(NCCCNc1nc(Nc2cccc(CN3CCOCC3)c2)ncc1C1CC1)C1CCC1 | 98%
* O=C(NOCC(O)CO)c1ccc(F)c(F)c1Nc1ccc(I)cc1Cl (configuration not stated) | 112%
* NC(=O)Nc1ccc2c(c1)/C(=C/c1cc(-c3cccnc3)c[nH]1)C(=O)N2 | 54%
* Oc1ccc2ccccc2c1SSc1c(O)ccc2ccccc12 | 91%
* O=C1NC(=S)N[C@@H]1Cc1c[nH]c2ccccc12 | 94%
* Cc1cc(NC(=O)c2cccc(NC(=O)/C=C/CN(C)C)c2)ccc1Nc1nccc(-c2cccnc2)n1 | 111%
* O=C(NOC[C@H](O)CO)c1ccc(F)c(F)c1Nc1ccc(I)cc1Cl | 86%
* Cc1ccc(=O)n(-c2ccccc2)c1 | 113%
* C=CC(=O)N1CCC[C@@H](n2nc(-c3ccc(Oc4ccccc4)cc3)c3c(N)ncnc32)C1 | 98%
* NC1(c2ccc(-c3nc4ccn5c(=O)[nH]nc5c4cc3-c3ccccc3)cc2)CCC1 | 95%
* COc1cc2ncn(-c3cc(OCc4ccccc4S(C)(=O)=O)c(C#N)s3)c2cc1OC | 66%
* NC(=O)c1c(NC(=O)C2CC2)sc2c1CCCC2 | 87%
* CCn1c(-c2nonc2N)nc2cncc(CNC3CCNCC3)c21 | 114%
* COc1cc(O)c2c(c1)[C@H]1OC1C[C@H](O)[C@H](O)C(=O)/C=C\C[C@H](C)OC2=O (some centres not stated) | 56%
* NCC(=O)Nc1ccc(-n2nc(C(F)(F)F)cc2-c2ccc3c(ccc4ccccc43)c2)cc1 | 92%
* Cc1ccc(Sc2cnc(Nc3cccc(Br)n3)s2)cc1C(=O)N1CCN(C(=O)CN)CC1 | 36%
* Cc1cc(SCc2sc(-c3ccc(C(F)(F)F)cc3)nc2C)ccc1OCC(=O)O | 103%
* CNc1nc(-c2ccc3c(N)n[nH]c3c2)cc(N2C[C@@H](C(=O)NC3CCCCC3)CC[C@H]2C)n1 | 100%
* Cc1ccc(-c2ccc3c(ccc4sc5c(c43)NC[C@@H](C)NC5=O)n2)cn1 | 95%
* COc1cc(C(=O)N2CCOCC2)c(F)cc1Nc1ncc(C(F)(F)F)c(NC2CC2)n1 | 81%
* Cn1c(=O)c2c(ncn2C)n(C)c1=O | 102%
* O=C(O)c1cc(N=Nc2ccc(S(=O)(=O)Nc3ccccn3)cc2)ccc1O | 119%
* Cc1nc(-c2ccc(OCC(C)C)c(C#N)c2)sc1C(=O)O | 104%
* CCNc1nc(Nc2cc(F)c(C(=O)N3CCOCC3)cc2OC)ncc1C(F)(F)F | 107%
* CCCCCc1ccc(/C=C/[C@H](O)[C@@H](CO)NC)cc1 | 91%
* FC(F)(F)c1ccc(-c2ccc(Oc3cncc4sc(-c5nn[nH]n5)cc34)cc2)cc1 | 126%
* O=C(O)c1ccc(-c2c[nH]c3ncc(-c4ccccc4)cc23)cc1C1CCCC1 | 97%
* NC(=O)c1ccc(-c2ccc(Oc3cncc4sc(-c5nn[nH]n5)cc34)cc2)cc1 | 94%
* Cc1cccc(-c2nn(C(=S)Nc3ccccc3)cc2-c2ccnc3ccccc23)n1 | 92%
* O=C(Nc1ccccc1-c1cn2c(CN3CCNCC3)csc2n1)c1cnc2ccccc2n1 | 99%
* O=c1c(O)c(-c2ccc(O)c(O)c2)oc2cc(O)c(O)c(O)c12 | 94%
* CN1C(=O)[C@@H](Cc2c[nH]c3ccccc23)NC1=S | 102%

----------
Reported values of residual activity for individual entries
- System: SGK1 (human), O00141 [S422D]
- Sequence (O00141 whole entry S422D, looked up): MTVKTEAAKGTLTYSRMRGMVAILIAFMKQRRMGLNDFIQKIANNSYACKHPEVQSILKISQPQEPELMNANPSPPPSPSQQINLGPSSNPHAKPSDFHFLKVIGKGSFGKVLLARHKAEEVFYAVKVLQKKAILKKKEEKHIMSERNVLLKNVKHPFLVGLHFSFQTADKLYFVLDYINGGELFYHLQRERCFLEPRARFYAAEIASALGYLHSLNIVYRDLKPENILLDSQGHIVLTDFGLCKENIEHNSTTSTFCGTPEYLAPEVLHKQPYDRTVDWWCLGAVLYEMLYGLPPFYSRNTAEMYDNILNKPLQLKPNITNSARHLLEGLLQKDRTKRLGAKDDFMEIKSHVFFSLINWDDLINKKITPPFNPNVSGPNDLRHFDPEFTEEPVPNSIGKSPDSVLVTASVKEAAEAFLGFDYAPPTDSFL
- method.notes: radiometric filter-binding kinase assay
- applied.conditions: compound 1.0 µM
property.label: residual activity

- COc1ccc(N(C(=O)Nc2c(C)cccc2C)c2cc(Nc3ccc(N4CCN(C)CC4)cc3)ncn2)c(OC)c1: 93%
- Nc1cccc2c1CN(C1CCC(=O)NC1=O)C2=O (stereo unspecified): 91%
- Cc1ccc(Sc2cnc(Nc3cccc(Br)n3)s2)cc1C(=O)N1CCN(C(=O)CN)CC1: 90%
- NC(=O)Nc1ccc2c(c1)/C(=C/c1cc(-c3cccnc3)c[nH]1)C(=O)N2: 32%
- O=c1c(O)c(-c2ccc(O)c(O)c2)oc2cc(O)c(O)c(O)c12: 87%
- Cc1cccc(-c2nn(C(=S)Nc3ccccc3)cc2-c2ccnc3ccccc23)n1: 103%
- COc1cc2ncn(-c3cc(OCc4ccccc4S(C)(=O)=O)c(C#N)s3)c2cc1OC: 105%
- O=C(NCCCNc1nc(Nc2cccc(CN3CCOCC3)c2)ncc1C1CC1)C1CCC1: 94%
- Cc1ccc(=O)n(-c2ccccc2)c1: 113%
- NC(=O)c1cc2c(-c3cccc(-c4ccccc4)c3)cnc(N)c2s1: 58%
- O=C(NOCC(O)CO)c1ccc(F)c(F)c1Nc1ccc(I)cc1Cl (stereo unspecified): 71%
- Oc1ccc2ccccc2c1SSc1c(O)ccc2ccccc12: 89%
- O=C(O)c1cc(N=Nc2ccc(S(=O)(=O)Nc3ccccn3)cc2)ccc1O: 76%
- C[C@H]1CCCC(=O)CCC/C=C/c2cc(O)cc(O)c2C(=O)O1: 93%
- CCNc1nc(Nc2cc(F)c(C(=O)N3CCOCC3)cc2OC)ncc1C(F)(F)F: 72%
- CC(C)(C#N)c1ccc(N2C(=O)OCc3cnc4ccc(-c5cnc6ccccc6c5)cc4c32)cc1: 96%
- NC(=O)c1ccc(-c2ccc(Oc3cncc4sc(-c5nn[nH]n5)cc34)cc2)cc1: 100%
- Cc1cc(SCc2sc(-c3ccc(C(F)(F)F)cc3)nc2C)ccc1OCC(=O)O: 111%
- O=C(N[C@@H](COc1ccc2[nH]c(=O)[nH]c2c1)c1ccccc1)c1cccn(Cc2ccc(F)c(F)c2)c1=O: 102%
- CCCCCc1ccc(/C=C/[C@H](O)[C@@H](CO)NC)cc1: 87%
- COc1ccc(-n2ncc3cnc(Nc4cc(OC)c(OC)c(OCCCN5CCN(C)CC5)c4)nc32)cc1: 61%
- FC(F)(F)c1ccc(-c2ccc(Oc3cncc4sc(-c5nn[nH]n5)cc34)cc2)cc1: 93%
- CNC(=O)C1[C@H]2O[C@@](C)([C@@H]1N)n1c3ccccc3c3c4c(c5c6ccccc6n2c5c31)C(=O)NC4 (stereo partly specified): 10%
- CN1C(=O)[C@@H](Cc2c[nH]c3ccccc23)NC1=S: 99%
- COc1ccc2c(c1)c1c3c(c4c5ccccc5n(C)c4c1n2CC(O)CN(C)C)C(=O)NC3=O (stereo unspecified): 25%
- O=C1NC(=S)N[C@@H]1Cc1c[nH]c2ccccc12: 87%
